Hey, just so you know, these numbers are from ChEMBL document CHEMBL2331176.

molecular target: Amine oxidase [flavin-containing] A (Homo sapiens); assay: Inhibition of recombinant human MAO-A expressed in baculovirus infected BT1-TN-5B1-4 cells assessed as inhibition of production of hydrogen peroxide from p-tyramine after 15 mins by Amplex Red assay
Sequence (P21397 whole entry): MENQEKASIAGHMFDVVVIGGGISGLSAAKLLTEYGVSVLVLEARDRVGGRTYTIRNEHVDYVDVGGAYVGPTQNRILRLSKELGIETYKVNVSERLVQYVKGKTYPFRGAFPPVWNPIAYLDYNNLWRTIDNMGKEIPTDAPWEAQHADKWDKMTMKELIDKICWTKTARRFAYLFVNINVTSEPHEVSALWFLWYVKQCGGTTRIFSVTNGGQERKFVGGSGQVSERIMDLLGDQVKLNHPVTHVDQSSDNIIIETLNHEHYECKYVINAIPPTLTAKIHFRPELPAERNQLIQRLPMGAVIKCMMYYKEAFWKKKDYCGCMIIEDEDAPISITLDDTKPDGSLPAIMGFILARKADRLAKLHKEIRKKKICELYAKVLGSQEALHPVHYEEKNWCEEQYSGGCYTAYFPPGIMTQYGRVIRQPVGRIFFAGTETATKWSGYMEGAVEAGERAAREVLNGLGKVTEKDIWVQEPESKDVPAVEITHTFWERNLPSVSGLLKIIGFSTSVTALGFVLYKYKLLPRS
pIC50: −log10 of the molar value.
Recorded endpoint: pIC50

# count of solved cases: 7
{"Given smiles": "O=C(/C=C/C=C/c1ccc(Cl)cc1)c1ccc(O)cc1O", "Target of assay": "Amine oxidase [flavin-containing] A (Homo sapiens)", "pIC50": 4.81}
{"Given smiles": "COc1cc(/C=C/C=C/C(=O)c2c(O)cccc2O)ccc1O", "Target of assay": "Amine oxidase [flavin-containing] A (Homo sapiens)", "pIC50": 5.84}
{"Given smiles": "O=C(/C=C(O)/C=C/c1ccc(O)c(O)c1)c1ccccc1O", "Target of assay": "Amine oxidase [flavin-containing] A (Homo sapiens)", "pIC50": 6.37}
{"Given smiles": "COc1cc(/C=C/C(O)=C/C(=O)c2c(O)cccc2OC)ccc1O", "Target of assay": "Amine oxidase [flavin-containing] A (Homo sapiens)", "pIC50": 5.42}
{"Given smiles": "COc1cc(/C=C/C=C/C(=O)c2c(O)cccc2OC)ccc1O", "Target of assay": "Amine oxidase [flavin-containing] A (Homo sapiens)", "pIC50": 5.99}
{"Given smiles": "O=C(/C=C/C=C/c1ccc(Cl)cc1)c1ccccc1O", "Target of assay": "Amine oxidase [flavin-containing] A (Homo sapiens)", "pIC50": 4.42}
{"Given smiles": "COc1cc(/C=C/C=C/C(=O)c2ccccc2O)ccc1O", "Target of assay": "Amine oxidase [flavin-containing] A (Homo sapiens)", "pIC50": 5.81}

I = O=C(/C=C(O)/C=C/c1ccc(O)cc1)c1ccccc1O
II = COc1ccc(/C=C/C=C/C(=O)c2c(O)cccc2O)cc1OC
For this pair, I and II , which shows a numerically higher pIC50? Answer by stating the label of the chosen item. I

---

target: Amine oxidase [flavin-containing] B (Homo sapiens); test: biochemical
Sequence (P27338 whole entry): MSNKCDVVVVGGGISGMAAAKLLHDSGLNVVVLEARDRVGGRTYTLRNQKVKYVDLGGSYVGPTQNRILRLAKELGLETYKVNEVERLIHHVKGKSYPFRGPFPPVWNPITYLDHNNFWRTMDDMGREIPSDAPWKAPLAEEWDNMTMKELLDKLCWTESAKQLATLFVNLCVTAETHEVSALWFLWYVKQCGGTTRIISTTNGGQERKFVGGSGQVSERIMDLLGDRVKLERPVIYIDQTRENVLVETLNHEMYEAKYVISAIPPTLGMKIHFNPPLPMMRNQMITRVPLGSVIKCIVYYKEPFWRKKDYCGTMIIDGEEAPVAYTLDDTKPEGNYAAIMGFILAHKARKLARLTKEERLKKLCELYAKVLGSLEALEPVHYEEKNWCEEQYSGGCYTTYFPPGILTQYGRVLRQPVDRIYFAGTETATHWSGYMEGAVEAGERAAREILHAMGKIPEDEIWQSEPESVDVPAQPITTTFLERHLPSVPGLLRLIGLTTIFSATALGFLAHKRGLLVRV
Description: Inhibition of recombinant human MAO-B expressed in baculovirus infected BT1-TN-5B1-4 cells assessed as inhibition of production of hydrogen peroxide from p-tyramine after 15 mins by Amplex Red assay
Recorded endpoint: IC50 (nM)

{"Given smiles": "COc1cc(/C=C/C=C/C(=O)c2c(O)cccc2OC)ccc1O", "Result number": 486}
{"Given smiles": "O=C(/C=C/C=C/c1ccc([N+](=O)[O-])cc1)c1cc(Cl)ccc1O", "Result number": 1080}
{"Given smiles": "O=C(/C=C/C=C/c1ccc([N+](=O)[O-])cc1)c1ccccc1O", "Result number": 160}
{"Given smiles": "O=C(/C=C/C=C/c1ccc(Cl)cc1)c1cc(Cl)ccc1O", "Result number": 1460}
{"Given smiles": "O=C(/C=C/C=C/c1ccc(Cl)cc1)c1ccc(O)cc1O", "Result number": 11.3}
{"Given smiles": "O=C(/C=C/C=C/c1ccc(Cl)cc1)c1ccccc1O", "Result number": 860}

I = O=C(/C=C(O)/C=C/c1ccccc1)c1ccccc1O
II = O=C(/C=C/c1ccccc1)c1cc(F)ccc1O
Which one would you say has the larger IC50 value: I , or II ? When you have decided, please share the label of that item. I
(I: 1160 nM, II: 668 nM)

P = COc1cc(/C=C/C=C/C(=O)c2c(O)cccc2O)ccc1O
Q = O=C(/C=C(O)/C=C/c1ccc(O)cc1)c1ccccc1O
R = COc1ccc(/C=C/C=C/C(=O)c2ccccc2O)cc1
Could you please order the items by IC50, going from the lowest number to the highest? Provide the labels, sequenced as the question asks. Q, P, R
